# METHOD_DESCRIPTION: protein stability index of a GFP-peptide fusion (GPS, HEK-293T) (PSI 1-6); higher = more stable;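 note: 24-mer peptide tiles fused after GFP, lentivirally expressed, FACS-sorted into six equal bins by GFP/DsRed ratio, decoded by Illumina sequencing, PSI is the read-weighted mean bin number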
# APPLIED_CONDITIONS: treatment: DMSO; c terminus: a fixed tail appended
What protein stability index was measured for each of the following?
One number for each entry.

KVKWTHEEDEQLRALVRQFGQQDW [MYBL2]; 3.19
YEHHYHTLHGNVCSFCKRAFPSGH [ZNF511]; 2.73
PSLSPGAFSYSSSSRFSSSRLLGS [PRPH]; 3.29

For the 3 sequences below, give their protein stability index values.
1. APYAAAAAAQSYPGYLPYSPEPPS [IRX6]
2. KARSNSTLSKSEYMVIEEGGMNHS [KCNA3]
3. TPTPVAAALDACSGNDPFAPSEGS [SNAP91]

Return:
1: 4.06; 2: 4.57; 3: 5.29

Okay, here is my list. What is protein stability index for each of these?
1. MATATPVPPRMGSRAGGPTTPLSP [LMNB1]
2. LTCNNYKNKMMVCQVGGIEALVRT [CTNNB1]
3. SKETRLTLMEEVLLLGLKDREGYT [GOLPH3]
4. SATNVTCYYQPAPYVSDGNFSNYY [TENT5C]

Return:
1. 4.21
2. 2.32
3. 2.8
4. 2.05

Values were extracted from the supplement of paper PMC10567573.
